- target_system: PARP7 (Homo sapiens, UniProt Q7Z3E1)
- Construct: purchased BPS 80527
- Sequence (Q7Z3E1 1-657): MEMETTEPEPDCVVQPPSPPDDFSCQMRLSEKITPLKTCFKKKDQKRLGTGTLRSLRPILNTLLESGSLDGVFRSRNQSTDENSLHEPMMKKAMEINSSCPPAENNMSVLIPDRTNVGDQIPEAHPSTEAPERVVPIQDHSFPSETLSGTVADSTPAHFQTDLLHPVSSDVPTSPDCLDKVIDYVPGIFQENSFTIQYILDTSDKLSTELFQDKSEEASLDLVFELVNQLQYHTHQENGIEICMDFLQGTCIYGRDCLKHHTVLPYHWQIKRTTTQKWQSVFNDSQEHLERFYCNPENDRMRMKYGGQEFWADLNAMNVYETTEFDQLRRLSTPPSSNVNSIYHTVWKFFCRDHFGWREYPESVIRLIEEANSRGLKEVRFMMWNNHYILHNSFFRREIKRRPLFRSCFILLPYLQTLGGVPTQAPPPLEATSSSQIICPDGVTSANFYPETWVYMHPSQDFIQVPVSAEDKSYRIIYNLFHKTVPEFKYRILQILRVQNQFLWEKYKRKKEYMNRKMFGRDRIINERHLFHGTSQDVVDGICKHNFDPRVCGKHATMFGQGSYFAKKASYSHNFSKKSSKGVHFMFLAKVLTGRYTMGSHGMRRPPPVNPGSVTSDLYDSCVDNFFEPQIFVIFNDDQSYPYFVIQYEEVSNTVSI
- assay_name: PARP7 TR-FRET binding inhibition (displacement of probe RBN011147)
- experimental_setup: TR-FRET, Biotin-labeled probe RBN011147; read-out: PARP7 binding inhibition IC50
pIC50: −log10 of the molar value.

| compound | pIC50 |
| --- | --- |
| O=C(NCC1CC(Nc2cn[nH]c(=O)c2C(F)(F)F)C1)c1ccc(-c2ncc(C(F)(F)F)s2)cc1 (stereo not shown) | < 7.00 |
| CC(CCCNC(=O)c1ccc(-c2ncc(N3CC(F)C3)s2)cc1)Nc1cn[nH]c(=O)c1C(F)(F)F (stereo not shown) | 7.52 to 8.00 |
| COc1cnc(-c2ccc(C(=O)NCCCC(C)Nc3cn[nH]c(=O)c3C(F)(F)F)c(F)c2)s1 (stereo not shown) | > 8.00 |
| Cc1cc(NC(C)CCCN(C)C(=O)c2cnc(-c3ncc(C(F)(F)F)cn3)cn2)c(C#N)c(=O)[nH]1 (stereo not shown) | < 7.00 |
| CC(CCCNC(=O)c1ccc(-c2ncc(C(F)(F)F)cn2)cc1)Nc1cn[nH]c(=O)c1C(F)(F)F (stereo not shown) | > 8.00 |
| CC(C)NC(=O)[C@@H](CCCNC(=O)c1ccc(-c2ncc(C(F)(F)F)s2)cc1)Nc1cn[nH]c(=O)c1C(F)(F)F | > 8.00 |
| CO[C@H]1CCN(C(=O)[C@@H](CCCNC(=O)c2ccc(-c3ncc(C(F)(F)F)s3)cc2)Nc2cn[nH]c(=O)c2C(F)(F)F)C1 | > 8.00 |

---

- target_system: PARP7 (Homo sapiens)
- Construct: purchased BPS 80527
- assay_name: PARP7 TR-FRET binding inhibition (displacement of probe RBN011147)
- experimental_setup: TR-FRET, Biotin-labeled probe RBN011147; read-out: PARP7 binding inhibition IC50
Documented IC50 across a set of compounds

| compound | IC50 |
| --- | --- |
| N#C[C@@H]1CCCN(C(=O)[C@@H](CCCNC(=O)c2ccc(-c3ncc(C(F)(F)F)s3)cc2)Nc2cn[nH]c(=O)c2C(F)(F)F)C1 | 10 to 30 nM |
| NC(=O)c1cccc2cn(CCCNC(=O)c3ncc(-c4ncc(C(F)(F)F)s4)cc3F)nc12 | 30 to 100 nM |
| O=C(NCCC[C@@H](Nc1cn[nH]c(=O)c1C(F)(F)F)C(=O)Nc1ccccn1)c1ccc(-c2ncc(C(F)(F)F)s2)cc1 | 30 to 100 nM |
| CC(CCCNC(=O)c1cnc(-c2ncc(C(F)(F)F)s2)cn1)Nc1cc[nH]c(=O)c1C(F)(F)F (stereo not shown) | 10 to 30 nM |
| CCNC(=O)C(CCCNC(=O)c1ccc(-c2ncc(C(F)(F)F)s2)cc1)Nc1cn[nH]c(=O)c1C(F)(F)F (stereo not shown) | < 10 nM |
| C[C@H]1CCN(C(=O)[C@@H](CCCNC(=O)c2ccc(-c3ncc(C(F)(F)F)s3)cc2)Nc2cn[nH]c(=O)c2C(F)(F)F)C1 | 10 to 30 nM |
| CC(CCCNC(=O)c1ccc(-c2ncc(C(F)F)s2)cn1)Nc1cn[nH]c(=O)c1C(F)(F)F (stereo not shown) | 10 to 30 nM |

---

- System: NCI-H1373 cells
- assay_name: Inhibition on NCI-H1373 cell proliferation (Cell-Titer-Glo)
- Type: cell-based
- experimental_setup: Homo sapiens, 144 h; NCI-H1373 cells, incubation for 6 days, Cell-Titer-Glo; read-out: NCI-H1373 cell proliferation inhibition IC50
property_label: IC50

| compound | assay_value |
| --- | --- |
| CC(CCCNC(=O)c1ccc(-c2cc(C(F)(F)F)on2)cc1)Nc1cn[nH]c(=O)c1C(F)(F)F (stereo not shown) [Example 79] | > 3000 nM |
| CC(CCCNC(=O)c1ccc(-c2ncn(C)n2)cc1)Nc1cn[nH]c(=O)c1C(F)(F)F (stereo not shown) [Example 47] | > 3000 nM |
| O=C(NCCCC(Nc1cn[nH]c(=O)c1C(F)(F)F)C(=O)N1CCOCC1)c1cnc(-c2ncc(C(F)(F)F)cn2)cn1 (stereo not shown) [Example 90] | > 3000 nM |
| C[C@H]1CCN(C(=O)[C@@H](CCCNC(=O)c2ccc(-c3ncc(C(F)(F)F)s3)cc2)Nc2cn[nH]c(=O)c2C(F)(F)F)C1 [Example 232] | 300 to 1000 nM |

---

- target_system: PARP7 (Homo sapiens)
- Construct: purchased BPS 80527
- assay_name: PARP7 TR-FRET binding inhibition (displacement of probe RBN011147)
- experimental_setup: TR-FRET, Biotin-labeled probe RBN011147; read-out: PARP7 binding inhibition IC50
- Method: The ability of the compound to substitute the probe RBN011147 (Wigle et al., 2020, Cell Chemical Biology 27, 877-887) was tested by a TR-FRET method, and IC50 was calculated to evaluate the binding ability of the compound to PARP7. […]

| compound | IC50 |
| --- | --- |
| CC(CCCNC(=O)c1ncc(-c2cscn2)cc1F)Nc1cn[nH]c(=O)c1C(F)(F)F (stereo not shown) [Example 182] | 30 to 100 nM |
| CC(CCCNC(=O)c1ccc(-c2ncc(CC3CC3)s2)cc1)Nc1cn[nH]c(=O)c1C(F)(F)F (stereo not shown) [Example 44] | < 10 nM |
| CC(CCCNC(=O)c1ccc(-c2cscn2)nc1)Nc1cn[nH]c(=O)c1C(F)(F)F (stereo not shown) [Example 60] | < 10 nM |
| CN(C(=O)[C@@H](CCCNC(=O)c1ccc(-c2ncc(C(F)(F)F)s2)cc1)Nc1cn[nH]c(=O)c1C(F)(F)F)C1CCC1 [Example 230] | 30 to 100 nM |
| CCN(C)C(=O)[C@@H](CCCNC(=O)c1ccc(-c2ncc(C(F)(F)F)s2)cc1)Nc1cn[nH]c(=O)c1C(F)(F)F [Example 259] | < 10 nM |
| CC(CCCNC(=O)c1ccc(-n2cncn2)c(F)c1)Nc1cn[nH]c(=O)c1C(F)(F)F (stereo not shown) [Example 48] | 30 to 100 nM |
| CC(CCCNC(=O)c1ccc(-c2cc(C(F)(F)F)n(C)n2)cc1)Nc1cn[nH]c(=O)c1C(F)(F)F (stereo not shown) [Example 185] | 30 to 100 nM |
| CC(CCCNC(=O)c1ccc(-c2cscn2)cc1F)Nc1cn[nH]c(=O)c1C(F)(F)F (stereo not shown) [Example 179] | 10 to 30 nM |
| CC(CCCN(C)C(=O)c1cnc(-c2ncc(C(F)(F)F)cn2)cn1)Nc1cn[nH]c(=O)c1C(F)(F)F (stereo not shown) [Example 50] | 10 to 30 nM |
| CC(CCCNC(=O)c1ncc(-c2ncc(C(F)(F)F)cn2)cc1F)Nc1cn[nH]c(=O)c1C(F)(F)F (stereo not shown) [Example 73] | < 10 nM |
| CC(CCCNC(=O)c1ccc(-c2ncc(C(F)(F)F)s2)cc1)Nc1cn[nH]c(=O)c1C(F)(F)F (stereo not shown) [Example 17] | < 10 nM |
| NC(=O)c1cccc2cn(CCCn3cnc4cc(-c5ncc(C(F)(F)F)cn5)c(F)cc4c3=O)nc12 [Example 252] | > 100 nM |
| C[C@@H]1COCCN1C(=O)[C@@H](CCCNC(=O)c1ccc(-c2ncc(C(F)(F)F)s2)cc1)Nc1cn[nH]c(=O)c1C(F)(F)F [Example 238] | < 10 nM |
| O=C(NCCC[C@@H](Nc1cn[nH]c(=O)c1C(F)(F)F)C(=O)N1CCSCC1)c1ccc(-c2ncc(C(F)(F)F)s2)cc1 [Example 236] | 10 to 30 nM |
| COC1CCN(C(=O)[C@@H](CCCNC(=O)c2ccc(-c3ncc(C(F)(F)F)s3)cc2)Nc2cn[nH]c(=O)c2C(F)(F)F)CC1 [Example 255] | < 10 nM |
| CCCc1cnc(-c2ccc(C(=O)NCCCC(C)Nc3cn[nH]c(=O)c3C(F)(F)F)cc2)s1 (stereo not shown) [Example 41] | 10 to 30 nM |
| NC(=O)c1cccc2cn(CCCn3ccc4cc(-c5ncc(C(F)(F)F)cn5)c(F)cc4c3=O)nc12 [Example 254] | > 100 nM |
| CC(CCCNC(=O)c1ccc(-c2ncc(N3CCOCC3)s2)cc1)Nc1cn[nH]c(=O)c1C(F)(F)F (stereo not shown) [Example 15] | 10 to 30 nM |
| CC(CCCNC(=O)c1ccc(-c2csc(C(F)(F)F)n2)cc1)Nc1cn[nH]c(=O)c1C(F)(F)F (stereo not shown) [Example 80] | 30 to 100 nM |
| O=C(NCC1CC(Nc2cn[nH]c(=O)c2C(F)(F)F)C1)c1ccc(-c2ncc(C(F)(F)F)cn2)cc1 (stereo not shown) [Example 226] | > 100 nM |
| O=C(NCCC[C@@H](Nc1cn[nH]c(=O)c1C(F)(F)F)C(=O)N1CC(Cl)C1)c1ccc(-c2ncc(C(F)(F)F)s2)cc1 [Example 224] | < 10 nM |
| CC(CCCNC(=O)c1cnc(-c2cscn2)c(F)c1)Nc1cn[nH]c(=O)c1C(F)(F)F (stereo not shown) [Example 178] | 10 to 30 nM |
| N#CC1CCN(C(=O)[C@@H](CCCNC(=O)c2ccc(-c3ncc(C(F)(F)F)s3)cc2)Nc2cn[nH]c(=O)c2C(F)(F)F)CC1 [Example 243] | < 10 nM |
| COC1(C)CN(C(=O)[C@@H](CCCNC(=O)c2ccc(-c3ncc(C(F)(F)F)s3)cc2)Nc2cn[nH]c(=O)c2C(F)(F)F)C1 [Example 246] | < 10 nM |
| CC(CCCNC(=O)c1ccc(-c2ncc(C(F)(F)F)cn2)cc1F)Nc1cn[nH]c(=O)c1C(F)(F)F (stereo not shown) [Example 2] | < 10 nM |
| O=C(NCCCC(Nc1cn[nH]c(=O)c1C(F)(F)F)C(=O)N1CCCC1)c1cnc(-c2ncc(C(F)(F)F)cn2)cn1 (stereo not shown) [Example 89] | < 10 nM |
| CC(CCCNC(=O)c1ccc(-c2ccc(-c3cnco3)cn2)cc1)Nc1cn[nH]c(=O)c1C(F)(F)F (stereo not shown) [Example 188] | 10 to 30 nM |
| CC(CCCNC(=O)c1ccc(-c2ccc(=O)n(C)n2)cc1)Nc1cn[nH]c(=O)c1C(F)(F)F (stereo not shown) [Example 64] | > 100 nM |
